target: Endothelin-1 receptor (Homo sapiens, UniProt P25101); assay: Inhibitory effect against Human ET-A receptor
Sequence (P25101 whole entry): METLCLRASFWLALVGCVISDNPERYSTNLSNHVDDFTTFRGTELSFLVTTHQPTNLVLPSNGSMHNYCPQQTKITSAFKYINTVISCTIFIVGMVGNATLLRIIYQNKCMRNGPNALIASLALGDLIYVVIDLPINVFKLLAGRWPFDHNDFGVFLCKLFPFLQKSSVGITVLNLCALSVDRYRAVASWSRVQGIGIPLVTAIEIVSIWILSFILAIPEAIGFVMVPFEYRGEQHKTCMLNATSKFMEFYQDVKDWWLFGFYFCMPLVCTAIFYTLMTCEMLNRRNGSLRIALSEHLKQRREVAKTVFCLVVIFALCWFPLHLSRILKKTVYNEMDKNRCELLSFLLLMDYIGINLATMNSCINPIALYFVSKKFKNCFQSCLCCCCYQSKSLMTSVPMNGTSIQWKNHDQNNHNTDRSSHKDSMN
measuredProperty: pIC50
One number for each entry, as −log10 of the molar value.

get_value(item= CC(C)C[C@@H]1NC(=O)[C@@H](c2cccs2)NC(=O)[C@@H]2CCCN2C(=O)[C@@H](CC(=O)O)NC(=O)[C@@H](Cc2c[nH]c3ccccc23)NC1=O (single isomer, unassigned) , readout=pIC50) returns 8.92

Please look at the following molecule next.
get_value(item= CC(C)C[C@@H]1NC(=O)[C@@H](C2CCCC2)NC(=O)[C@@H]2CCCN2C(=O)[C@@H](CC(=O)O)NC(=O)[C@@H](Cc2c[nH]c3ccccc23)NC1=O (single isomer, unassigned) , readout=pIC50) returns 8.47
